Recorded log10(GI50), one value per entry.
- Tested on: FaDu
- Measurement Notes: Growth inhibition against human pharynx FADU cell line
- Assay type: functional
Heads up: the numbers are on a log10 scale; they represent GI50 in µg/mL.

COc1ccc(/C=C\c2cc(OC)c(OC)c(OC)c2)cc1OCCN1CCN(C)CC1.Cl.Cl; 0.46
COc1ccc(/C=C/c2cc(OC)c(OC)c(OC)c2)cc1[N+](=O)[O-]; 0.58

The recorded log10(GI50) for `COc1ccc(/C=C\c2cc(OC)c(OC)c(OC)c2)cc1OCCN1CCCCC1.Cl` is 0.62

The recorded log10(GI50) for `COc1ccc(/C=C\c2cc(OC)c(OC)c(OC)c2)cc1Br` is -2.24

The recorded log10(GI50) for `COc1ccc(/C=C\c2cc(OC)c(OC)c(OC)c2)cc1N` is -3.28

The recorded log10(GI50) for `COc1ccc(/C=C/c2cc(OC)c(O)c(OC)c2)cc1O` is 0.51

Data origin, for the record: ChEMBL document CHEMBL1139543
